// data source = patent US20240228562A1

# target-entity: T1, Rat CTGF (Rattus norvegicus, UniProt Q9R1E9)
# T1 construct: purchased R&D Systems
# T1 sequence (Q9R1E9 25-347): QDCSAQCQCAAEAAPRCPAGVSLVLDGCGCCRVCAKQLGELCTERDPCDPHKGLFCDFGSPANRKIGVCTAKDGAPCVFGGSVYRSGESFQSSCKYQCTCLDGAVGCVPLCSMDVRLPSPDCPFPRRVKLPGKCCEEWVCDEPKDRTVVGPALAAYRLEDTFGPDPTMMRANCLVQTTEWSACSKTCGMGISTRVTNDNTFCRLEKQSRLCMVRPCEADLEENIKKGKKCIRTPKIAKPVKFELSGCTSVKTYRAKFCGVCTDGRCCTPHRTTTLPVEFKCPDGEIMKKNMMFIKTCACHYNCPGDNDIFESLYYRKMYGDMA
# procedure-text: ELISA binding to rat CTGF (Example 9)
# cond: muteins from 1000 nM, read-out: EC Rat CTGF
pEC50: −log10 of the molar value.
Reported values of pEC50 for individual entries
reported-endpoint: pEC50

molecule="SEQ ID NO: 9: parent CTGF-binding hNGAL lipocalin mutein (protein, lipocalin mutein) QDSTSDLIPAPPLSKVPLQQNFQDNQFHGKWYVVGLAGNKILRIDKQPAKMFATIYELKEDKSYDVTSVRFEARSCSYTIKTFVPGSQPGEFTAGNIKSAPGQTSTLVRVVSTNYNQHAMVFFKHVSQNRETFVITLYGRTKELTSELKENFIRFSKSLGLPENHIVFPVPIDQCIDG" recorded_result=7.52
molecule="SEQ ID NO: 29: parent CTGF-binding hNGAL lipocalin mutein (protein, lipocalin mutein) QDSTSDLIPAPPLSKVPLQQNFQDNQFHGKWYVVGWAGNIKLREDKDPFKMSATIYELKEDKSYNVTEVVFEQKKCHYIIKTFVPGSQPGEFTLGDIKSPPGETSSLVRVVSTNYNQHAMVFFKKVFQNREFFWITLYGRTKELTSELKENFIRFSKSLGLPENHIVFPVPIDQCIDG" recorded_result=7.70
molecule="SEQ ID NO: 7: parent CTGF-binding hNGAL lipocalin mutein (protein, lipocalin mutein) QDSTSDLIPAPPLSKVPLQQNFQDNQFHGKWYVVGLAGNYGLRTDKRPSKMFATIYELKEDKSYDVTSVRFEQERCHYTIRTFVPGSQPGEFTTGSIKSRPGQTSSLVRVVSTNYNQHAMVFFKSVIQNREYFAITLYGRTKELTSELKENFIRFSKSLGLPENHIVFPVPIDQCIDG" recorded_result=7.39
molecule="SEQ ID NO: 25: parent CTGF-binding hNGAL lipocalin mutein (protein, lipocalin mutein) QDSTSDLIPAPPLSKVPLQQNFQDNQFHGKWYVVGMAGNFRLREDKDPSKMGATIYELKEDKSYNVTQVQFDDKKCLYVIETFVPGSQPGEFTLGAIKSFPGFTSQLVRVVSTNYNQHAMVFFKKVYQNREVFWITLYGRTKELTSELKENFIRFSKSLGLPENHIVFPVPIDQCIDG" recorded_result=7.64
